ASSAYED SYSTEM: purified catalytic domain of recombinant human TACE (rhTACEc) (Homo sapiens, UniProt P78536, N452Q/S266A)
Construct: rhTACEc, Residue 215 to 477 with two mutation (S266A and N452Q) and a 6xHis tail; 6xHis (C); made in house; host or cells: baculovirus/Hi5 insect cells
Sequence (P78536 215-477 S266A/N452Q): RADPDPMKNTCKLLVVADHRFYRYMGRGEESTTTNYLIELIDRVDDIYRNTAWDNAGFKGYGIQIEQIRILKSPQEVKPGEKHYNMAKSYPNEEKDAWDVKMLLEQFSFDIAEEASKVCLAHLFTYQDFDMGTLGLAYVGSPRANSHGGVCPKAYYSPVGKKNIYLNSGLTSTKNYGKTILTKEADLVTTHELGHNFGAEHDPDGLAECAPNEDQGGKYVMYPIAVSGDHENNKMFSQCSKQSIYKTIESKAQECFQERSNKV
PROTOCOL DESCRIPTION: TACE kinetic assay, cleavage of internally quenched fluorescent peptide substrate SPDL-3
Format: biochemical
EXPERIMENTAL CONTEXT: TACE inhibition, Table 1; read-out: Ki Rating
pKi: −log10 of the molar value.
READOUT LABEL: pKi

Here are 2 compounds together with their reported answers.
[
  {
    "COMPOUND": "COc1ccc2c(c1)C(=O)N(C[C@@]1(c3cc4cc(C#N)ccc4o3)NC(=O)NC1=O)C2",
    "ASSAY RESULT": "> 8.00"
  },
  {
    "COMPOUND": "COc1ccc2c(c1)C(=O)N(C[C@@]1(c3ccc(-c4ccc(S(N)(=O)=O)cc4)cc3)NC(=O)NC1=O)C2",
    "ASSAY RESULT": "> 8.00"
  }
]

Please give the measured pKi for this compound: COc1ccc2c(c1)C(=O)N(CC1(CC(=O)N[C@@H](C)c3ccccc3)NC(=O)NC1=O)C2 (stereo partly shown)
7.00 to 8.00

Please give the measured pKi for this compound: O=C1NC(=O)C(CN2Cc3c[nH]c(=O)cc3C2=O)(c2ccc(F)cc2)N1 (stereo not shown)
7.00 to 8.00

###

ASSAYED SYSTEM: purified catalytic domain of recombinant human TACE (rhTACEc) (Homo sapiens, UniProt P78536, N452Q/S266A)
Construct: rhTACEc, Residue 215 to 477 with two mutation (S266A and N452Q) and a 6xHis tail; 6xHis (C); made in house; host or cells: baculovirus/Hi5 insect cells
PROTOCOL DESCRIPTION: TACE kinetic assay, cleavage of internally quenched fluorescent peptide substrate SPDL-3
Format: biochemical
EXPERIMENTAL CONTEXT: TACE inhibition, Table 1; read-out: Ki Rating
pKi: −log10 of the molar value.
READOUT LABEL: pKi

Here are 5 molecules together with their reported answers.
[
  {
    "MOLECULE": "COc1ccc2c(c1)C(=O)N(C[C@@]1(c3cc4cc(/C=N/O)ccc4o3)NC(=O)NC1=O)C2 [Compound 97]",
    "pKi": "> 8.00"
  },
  {
    "MOLECULE": "COc1ccc2c(c1)C(=O)N(CC1(CC(=O)Nc3nc4ccccc4s3)NC(=O)NC1=O)C2 (stereo not shown) [Compound 10]",
    "pKi": "> 8.00"
  },
  {
    "MOLECULE": "CC#CCOc1ccc([C@]2(CN3Cc4ccc(OC)cc4C3=O)NC(=O)NC2=O)cc1 [Compound 91]",
    "pKi": "> 8.00"
  },
  {
    "MOLECULE": "COc1ccc2c(c1)C(=O)N(CC1(CC(=O)N3CCCCC3)NC(=O)NC1=O)C2 (stereo not shown) [Compound 9]",
    "pKi": "> 8.00"
  },
  {
    "MOLECULE": "COc1ccc2c(c1)C(=O)N(C[C@@]1(c3ccc(-c4cc(C#N)ccn4)cc3)NC(=O)NC1=O)C2 [Compound 73]",
    "pKi": "> 8.00"
  }
]

Please give the measured pKi for this molecule: COc1ccc2c(c1)C(=O)N(C[C@@]1(c3ccc(C(N)=O)cc3)NC(=O)NC1=O)C2 [Compound 103]
> 8.00

Please give the measured pKi for this molecule: COc1ccc2c(c1)C(=O)N(C[C@@]1(c3ccc(-c4ncccc4C(=O)NC4CC4)cc3)NC(=O)NC1=O)C2 [Compound 62]
> 8.00

###

ASSAYED SYSTEM: purified catalytic domain of recombinant human TACE (rhTACEc) (Homo sapiens, UniProt P78536, N452Q/S266A)
Construct: rhTACEc, Residue 215 to 477 with two mutation (S266A and N452Q) and a 6xHis tail; 6xHis (C); made in house; host or cells: baculovirus/Hi5 insect cells
PROTOCOL DESCRIPTION: TACE kinetic assay, cleavage of internally quenched fluorescent peptide substrate SPDL-3
Type: biochemical
EXPERIMENTAL CONTEXT: TACE inhibition, Table 1; read-out: Ki Rating
READOUT LABEL: Ki

Here are 3 molecules together with their reported answers.
[
  {
    "MOLECULE": "COc1ccc2c(c1)C(=O)N(C[C@@]1(c3ccc(C#N)cc3)NC(=O)NC1=O)C2",
    "Ki": "< 10 nM"
  },
  {
    "MOLECULE": "COc1ccc2c(c1)C(=O)N(C[C@@]1(c3ccc(Oc4ccc(C(=O)N5CCOCC5)cc4)cc3)NC(=O)NC1=O)C2",
    "Ki": "< 10 nM"
  },
  {
    "MOLECULE": "COc1ccc2c(c1)C(=O)N(C[C@]1(c3ccc(C#Cc4ccccn4)cc3)NC(=O)NC1=O)C2",
    "Ki": "10 to 100 nM"
  }
]

Please give the measured Ki for this molecule: COc1ccc2c(c1)C(=O)N(CC1(CC(=O)NCC3CCCO3)NC(=O)NC1=O)C2 (stereo not shown)
10 to 100 nM

###

In this section, each of the molecules is paired with its reported Ki.
ASSAYED SYSTEM: purified catalytic domain of recombinant human TACE (rhTACEc) (Homo sapiens, UniProt P78536, N452Q/S266A)
Construct: rhTACEc, Residue 215 to 477 with two mutation (S266A and N452Q) and a 6xHis tail; 6xHis (C); made in house; host or cells: baculovirus/Hi5 insect cells
PROTOCOL DESCRIPTION: TACE kinetic assay, cleavage of internally quenched fluorescent peptide substrate SPDL-3
Type: biochemical
EXPERIMENTAL CONTEXT: TACE inhibition, Table 1; read-out: Ki Rating

[
  {
    "MOLECULE": "COc1ccc2c(c1)CN(CC1(c3ccc(C#CCN(C)C)cc3)NC(=O)NC1=O)C2=O (stereo not shown) [Compound 18]",
    "Ki": "< 10 nM"
  },
  {
    "MOLECULE": "COc1ccc2c(c1)C(=O)N(C[C@@]1(c3ccc(-c4cnc(C(=O)NC5CC5)cn4)cc3)NC(=O)NC1=O)C2 [Compound 71]",
    "Ki": "< 10 nM"
  },
  {
    "MOLECULE": "COc1ccc2c(c1)C(=O)N(CC1(CC(=O)NCC(C)C)NC(=O)NC1=O)C2 (stereo not shown) [Compound 11]",
    "Ki": "10 to 100 nM"
  }
]

Turning now to a further molecule:
Please give the measured Ki for this molecule: COc1ccc2c(c1)C(=O)N(C[C@@]1(c3ccc(-c4cccc(C#N)c4)cc3)NC(=O)NC1=O)C2 [Compound 81]
< 10 nM

###

ASSAYED SYSTEM: purified catalytic domain of recombinant human TACE (rhTACEc) (Homo sapiens, UniProt P78536, N452Q/S266A)
Construct: rhTACEc, Residue 215 to 477 with two mutation (S266A and N452Q) and a 6xHis tail; 6xHis (C); made in house; host or cells: baculovirus/Hi5 insect cells
PROTOCOL DESCRIPTION: TACE kinetic assay, cleavage of internally quenched fluorescent peptide substrate SPDL-3
Format: biochemical
READOUT LABEL: Ki

Please give the measured Ki for this molecule: COc1ccc2c(c1)C(=O)N(C[C@@]1(c3ccc(OC(=O)N(C)C)cc3)NC(=O)NC1=O)C2
< 10 nM

###

ASSAYED SYSTEM: purified catalytic domain of recombinant human TACE (rhTACEc) (Homo sapiens, UniProt P78536, N452Q/S266A)
Construct: rhTACEc, Residue 215 to 477 with two mutation (S266A and N452Q) and a 6xHis tail; 6xHis (C); made in house; host or cells: baculovirus/Hi5 insect cells
PROTOCOL DESCRIPTION: TACE kinetic assay, cleavage of internally quenched fluorescent peptide substrate SPDL-3
Assay type: biochemical
EXPERIMENTAL CONTEXT: TACE inhibition, Table 1; read-out: Ki Rating
READOUT LABEL: Ki

Here are 3 compounds together with their reported answers.
[
  {
    "COMPOUND": "COc1ccc2c(c1)CN(CC1(c3ccc(C#CCO)cc3)NC(=O)NC1=O)C2=O (centres unmarked) [Compound 20]",
    "Ki": "< 10 nM"
  },
  {
    "COMPOUND": "COc1ccc2c(c1)C(=O)N(C[C@@]1(c3cc4cc(C#N)cnc4o3)NC(=O)NC1=O)C2 [Compound 38]",
    "Ki": "< 10 nM"
  },
  {
    "COMPOUND": "COc1ccc2c(c1)C(=O)N(C[C@@]1(c3ccc(-c4cc(C(N)=O)ccn4)cc3)NC(=O)NC1=O)C2 [Compound 59]",
    "Ki": "< 10 nM"
  }
]

Please give the measured Ki for this compound: COc1ccc2c(c1)C(=O)N(C[C@@]1(c3ccc(C#Cc4ccccn4)cc3)NC(=O)NC1=O)C2 [Compound 22]
< 10 nM

Please give the measured Ki for this compound: COC(=O)c1ccc(C2(CN3Cc4ccc(OC)cc4C3=O)NC(=O)NC2=O)cc1 (centres unmarked) [Compound 30]
< 10 nM

Please give the measured Ki for this compound: O=C(O)Cc1ccc2c(c1)CN(CC1(c3ccc(F)cc3)NC(=O)NC1=O)C2=O (centres unmarked) [Compound 36]
100 to 1000 nM

Please give the measured Ki for this compound: CN(C)CC#Cc1ccc([C@]2(CN3Cc4ccc(O)cc4C3=O)NC(=O)NC2=O)cc1 [Compound 19]
10 to 100 nM

Please give the measured Ki for this compound: CCOC(=O)CC1(CN2Cc3ccc(OC)cc3C2=O)NC(=O)NC1=O (centres unmarked) [Compound 1]
10 to 100 nM
